Entry source: patent US20140148606A1

# Tested on: A549
# assay-explanation: Anti-proliferative activity assay (MTT / CellTiter-Glo)
# Type: cell-based
# condition-context: Homo sapiens; A549, lung; read-out: IC50 (nM), proliferation
readout-label: IC50

compound: CN=C1C=CC(=C(c2ccc(N(C)C)cc2)c2ccc(N(C)C)cc2)C=C1.Cl [methyl violet 2B]
readout-label: IC50
assay-value: 45.6 nM

---

# System: Balb/c
# assay-explanation: Anti-proliferative activity assay (MTT / CellTiter-Glo)
# Format: cell-based
# condition-context: Mus musculus, fibroblast, read-out: IC50 (nM), proliferation
# Description: Melanoma cells (A375P, A375SM) and breast cancer cells (MDA-MB-231, MCF7) were maintained in DMEM medium (Welgene, Daegu, Korea). Colorectal cancer cells (HCT116, HT29), lung cancer cells (A549) and prostate cancer cells (DU145) were grown in RPMI1640 medium (Welgene). NIH3T3 and Balb/c cells were cultured in DMEM/F12 medium (Welgene). Each medium was supplemented with 10% FBS (Welgene) and 1% penicillin/streptomycin (Welgene) in a humidified atmosphere with 5% CO2 at 37° C. […]

compound: CN=C1C=CC(=C(c2ccc(N(C)C)cc2)c2ccc(N(C)C)cc2)C=C1.Cl [methyl violet 2B]
units-symbol: nM
IC50: 59400

---

# System: MDA-MB-231
# assay-explanation: Anti-proliferative activity assay (MTT / CellTiter-Glo)
# Type: cell-based
# condition-context: Homo sapiens; MDA-MB-231, breast; read-out: IC50 (nM), proliferation
readout-label: IC50 (nM)

cpd-smiles: CN=C1C=CC(=C(c2ccc(N(C)C)cc2)c2ccc(N(C)C)cc2)C=C1.Cl
assay-value: 13.4
